Measured property: melting point

Consider the following illustrative entries.
{"Smiles code": "CN(C)c1cc(C(=O)O)ncn1", "Result": "250 °C"}
{"Smiles code": "O=C(O)c1nc(-c2ccccc2)n2c1CN=C(c1ccccc1F)c1cc(Cl)ccc1-2", "Result": "267 to 269 °C"}
{"Smiles code": "CCCCCCCCc1ccc(OCC(=O)Cn2cccc2)cc1", "Result": "58 to 59 °C"}

Consider the compound CCOC(=O)CN(C)C(=O)c1ccn2c1CNc1ccccc1C2 and give its measured melting point.
147 to 148 °C

Consider the compound COC(=O)N(O)c1cccnc1Oc1ccccc1 and give its measured melting point.
140 °C

Consider the compound CCOC(=O)c1cc2n(CC)c3ccc(Cl)cc3c(=O)n2n1 and give its measured melting point.
256 to 257 °C
